Test system: MAP3K15
Cond: concentration: 1 μM, replicates: in singlicate; n = 1;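 note: KINOMEscan kinase panel screen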
Endpoint name: %Inh (%)
Give just the numeric value; % need not be written.

Examples from the recorded data:
> print(dat)
                                   compound  uom  value.observed
1  O=C(O)C(F)(F)F.O=c1[nH]ccc2nc(N[C@@H]3CCNC3)nc(Nc3ccc4c(c3)S(=O)(=O)CC4)c12 [GSK2181306]    %              49
2  COc1cc(Nc2nccc(N3CCC(NS(=O)(=O)c4ccc(NC(C)=O)cc4)CC3)n2)cc(OC)c1OC [GSK1379825]    %               0
3  Nc1ncc(-c2ccc3nccc(-c4ccncc4)c3c2)cc1S(=O)(=O)N1CCCCC1 [GSK1693850]    %               0
4  CC(C)(C)c1ccc(C(=O)Nc2cn3cc(-n4ccnc4)ccc3n2)cc1    %              68
5  Cc1ccc(-c2ccc3occ(-c4ccc(S(C)=O)cc4)c3c2)nn1 (stereo not drawn)    %               0

Query: What does the data say about its %Inh? Entry: "CC(=O)Nc1cn2nc(Oc3cccc(NC(=O)c4cccc(C(F)(F)F)c4)c3)ccc2n1"
Result: 0

Query: And then CCOc1nccc(-c2c(-c3ccc(F)cc3)ncn2C2CCNCC2)n1 [SB-249175] , what is it?
Result: 57

###

Tested on: MAST1
Cond: concentration: 1 μM, replicates: in singlicate; n = 1
Endpoint name: %Inh (%)
The answer is to be given in %; state only the numeric part.

> print(dat)
                              record.smiles    tgt  value.observed
1  Cl.O=C(Nc1ccc(Oc2ccc3[nH]c(NC(=O)c4ccco4)nc3c2)cc1)Nc1cc(C(F)(F)F)ccc1F  MAST1               8
2    O=C(Nc1n[nH]c2nc(-c3ccccc3)ccc12)C1CC1  MAST1              22
3  CN(C)CCNS(=O)(=O)c1ccc(-c2ccnc3[nH]ccc23)cc1  MAST1               0
4  Cc1cccc(Nc2nc(N[C@H]3CCCC[C@H]3N)ncc2C(N)=O)c1.Cl  MAST1               0

Please examine the following record next.
Query: Recorded %Inh for "O=C(Nc1n[nH]c2nc(-c3cccc(O)c3)ccc12)C1CC1" , please?
Result: 42

###

System: CSK
Cond: concentration: 1 μM, replicates: in singlicate; n = 1
Mark 1.0 only for %Inh values smaller than 20%; exact matches and larger values are 0.0.

Query: Identify whether the compound "N#CC1(c2cccc(C(=O)Nc3cccc(Oc4ccc5nc(NC(=O)C6CC6)sc5n4)c3)c2)CC1" records %Inh below 20%.
Result: 0.0

###

Tested on: EPHA3
Cond: concentration: 1 μM, replicates: in singlicate; n = 1
Endpoint name: %Inh (%)
Entry rule: numbers only, all in %.

Query: Sample Cl.Cl.NC(CNC(=O)c1cc(Br)c(-c2ccnc3[nH]ccc23)s1)c1ccccc1 (stereo not drawn) — what was its %Inh?
Result: 26

Query: Please do the same for "CC(C)c1nc(-c2cccc(NS(=O)(=O)c3c(F)cccc3F)c2)c(-c2ccnc(Nc3ccc(N4CCOCC4)nc3)n2)s1.Cl" as well.
Result: 18

Query: Lookup "COc1cccc(NC(=O)NCCNc2ccnc(Nc3ccc(F)cc3)n2)c1"
Result: 0

Query: Next record, please: "CSc1ccc(NC2=C(c3ccc(Cl)cc3)C(=O)NC2=O)cc1"
Result: 0

Query: // next record "Cc1ccc(O)cc1Nc1ccnc2cc(-c3ccc(CN4CCCCC4)o3)ccc12"
Result: 94.9

Query: Same lookup for NCCC(NC(=O)c1cc(Br)c(-c2ccnc3[nH]ccc23)s1)c1ccccc1.O=C(O)C(F)(F)F.O=C(O)C(F)(F)F (stereo not drawn) , please.
Result: 35

###

System: PRKCQ
Cond: concentration: 1 μM, replicates: in singlicate; n = 1
Endpoint name: %Inh (%)
Unit % implied. Number only.

> print(dat)
                                   compound  value.observed
1  Nc1cccc(-c2ccc3c(N)n[nH]c3c2)c1 [GSK2193613]              20
2  Cc1cc(-c2ccnc(Nc3cccc(C#N)c3)n2)cc(C)c1O [GSK1440913]              12
3  COc1cccc(NC(=O)NCCNc2ccnc(Nc3ccc(F)cc3)n2)c1 [GSK1379879]              12
4  CN(c1ccc(NC(=O)N2CCN(CCCN3CCOCC3)CC2)cc1)c1ccnc(Nc2ccc(CS(C)(=O)=O)cc2)n1.Cl [GW830899]               0
5  COC(=O)Nc1nc2ccc(Oc3ccc(CC(=O)Nc4cc(C(F)(F)F)ccc4F)cc3)cc2[nH]1 [GW680903]               0

Query: I'd like to know its %Inh. The compound in question is O=C(O)C(F)(F)F.O=c1[nH]ccc2nc(N[C@@H]3CCNC3)nc(Nc3ccc4c(c3)S(=O)(=O)CC4)c12 [GSK2181306]
Result: 53

Query: Next record, please: Cc1ccc(O)cc1Nc1ccnc2ccc(C(C)(C)C)cc12 [GW856805]
Result: 0

Query: And what about the compound COc1cccc2c(-c3ccncc3)c(-c3ccc(F)cc3)nn12 [GW468513] ?
Result: 41

Query: Follow-up entry: O=C(Nc1n[nH]c2nc(-c3cccc(O)c3)ccc12)C1CC1 [SB-711805]
Result: 0

###

Test system: INSR
Cond: concentration: 1 μM, replicates: in singlicate; n = 1
Overview of recorded %Inh for various compounds
Provide only the numeric value, understood in %.

> print(dat)
                                   compound  endpoint.name  value.observed
1  Cc1nn2c(=O)cc(N3CCO[C@H](C)C3)nc2n1Cc1cccc(Cl)c1Cl           %Inh               4
2  Cc1ccc(Nc2ccnc(Nc3ccc(C)c(F)c3)n2)cc1O.Cl           %Inh               0
3  Cl.N#CCc1ccc(Nc2nccc(Nc3ccc(Oc4ccccc4)cc3)n2)cc1           %Inh               0
4  Cl.Cl.NC(CNC(=O)c1cc(Br)c(-c2ccnc3[nH]ccc23)s1)c1ccccc1 (centres unmarked)           %Inh               9
5  Cn1cc(-c2cnc(N)c3c(-c4ccc5c(c4)CCN5C(=O)Cc4ccccc4)csc23)cn1           %Inh              12

Query: Reported %Inh for "COc1cccc2c(-c3ccncc3)c(-c3ccc(F)cc3)nn12" : what is it?
Result: 11

Query: Now this one: "COc1ccc(C)c(Nc2ccnc(Nc3ccc(-c4cnc[nH]4)cc3)n2)c1.Cl"
Result: 0

Query: Also "Nc1ncc(-c2cn[nH]c2)c2scc(-c3ccc4c(c3)CCN4C(=O)Cc3ccccc3)c12" , if possible.
Result: 13

Query: What would you report for "Cc1cc(-c2c(-c3ccc(F)cc3)ncn2CCCN2CCOCC2)nc(N)n1" ?
Result: 8

Query: What do you get for "O=C(O)C(F)(F)F.O=c1[nH]ccc2nc(N[C@@H]3CCNC3)nc(Nc3cc(Cl)cc(Cl)c3)c12" ?
Result: 36

Query: Again, but for Cc1ccc(-c2ccc3occ(-c4ccc(S(C)=O)cc4)c3c2)nn1 (centres unmarked)
Result: 0

Query: Here is the next compound: "CCn1c(-c2nonc2N)nc2c(-c3ccccc3)ncc(OCCCN)c21.O=C(O)C(F)(F)F.O=C(O)C(F)(F)F"
Result: 0

Query: Repeat for the following compound: "COc1cccc(-c2nc(-c3ccccc3)[nH]c2-c2ccncc2)c1"
Result: 5

###

System: ACVR2B
Cond: concentration: 1 μM, replicates: in singlicate; n = 1
Endpoint name: %Inh (%)
# output: bare number, implied unit %

Example results:
> print(dat)
                                   compound  endpoint.name  uom  value.observed
1               CCn1cnc2c(NCc3ccccc3)ncnc21           %Inh    %               0
2  O=C(Nc1c(F)cccc1F)c1cc(C(=O)c2ccccc2F)c[nH]1           %Inh    %               0
3  COc1cc(Nc2nccc(N3CCC(NC(=O)Nc4ccc5c(c4)OCO5)C3)n2)cc(OC)c1OC (stereo not drawn)           %Inh    %               0

Query: Which measured %Inh belongs to "CN(c1ccc(F)c(NC(=O)c2cccc(OC(C)(C)C#N)c2Cl)c1)c1ccc2nc(NC(=O)C3CC3)sc2n1" , tested on ACVR2B?
Result: 0

Query: Also, "COc1ccc(NC(=O)c2ccoc2)cc1-c1ccc(C(=O)NCC2CC2)cc1" please.
Result: 17

Query: And then "CN(C)c1ncnc2nc[nH]c12" , what is it?
Result: 0

Query: "O=C(O)C(F)(F)F.O=c1[nH]ccc2nc(N[C@@H]3CCNC3)nc(Nc3cc(Cl)cc(Cl)c3)c12" ?
Result: 0

Query: Moving on to "Fc1cc(Cl)ccc1Nc1ccnc2cc(-c3ccc(CN4CCSCC4)o3)ccc12"
Result: 91

Query: Entry "COc1cccc(CC(=O)N2CCc3cc(-c4cn(C)c5ncnc(N)c45)ccc32)c1" please
Result: 61
